Measured values drawn from patent US20240317841A1 for this set.

- studyTarget: H8 (Influenza A virus)
- experiment: FACS, HA on mammalian cells; 2nd only 7.9
readoutName: % cells binding to HA (%)
Give bare numbers, in %.

input: Output % cells binding to HA of FHF11v6 (antibody, V domains shown) VH: QVQLQQSGPGLVKPSQTLSVTCGISGDSVSSHSAAWNWIRQSPSRGLEWLGRTYYRSGWYNDYAVSVKSRITINPDTSKNQFSLQLISVTPEDTAVYYCARVGAMTFGLLTGGMDVWGQGTTVTVSS VL: EIVLTQSPGTQSLSPGERATLSCRASQSLSRSYLAWYQQRPGKPPRLLIYGASSRATGIPDRFSGSGSGTDFSLTISSLEPEDSAMYFCQYYGDSPLFSFGPGTKVDIK
output: 77
